The following variants are shown together with reported protein stability index values.
B1: ZNF232 (parent)
chain: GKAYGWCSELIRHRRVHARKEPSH

- Variants of: B1
- method notes: protein stability index of a GFP-peptide fusion (GPS, HEK-293T) (PSI 1-6); higher = more stable;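 further: lentivirally expressed fusions sorted by FACS into six bins by GFP to DsRed ratio, PSI derived from sequencing read proportions per bin multiplied by bin number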
- experimental setup: c terminus: a fixed tail appended
Output: the number by itself.

Use these answered entries as a reference point.
- chain: "GKAYGWCSELIRHRRVHARKEPSR"
  protein stability index: 3.15
- chain: "GKAYGWCSELIRHRRHHARKEPSH"
  protein stability index: 3.41
- chain: "GKAYGWCSELIRHREVHARKEPSH"
  protein stability index: 3.28
- chain: "GKAYGWCCELIRHRRVHARKEPSH"
  protein stability index: 2.14
- chain: "GKAYGWCNELIRHRRVHARKEPSH"
  protein stability index: 3.21
- chain: "GKAYGWCSELIIHRRVHARKEPSH"
  protein stability index: 2.22
- chain: "GKAYGWCSELIRHRRVHARKGPSH"
  protein stability index: 2.58
- chain: "GKAYGWCSELIRHRRVHAYKEPSH"
  protein stability index: 1.81
- chain: "GKAYGWCSELIRHMRVHARKEPSH"
  protein stability index: 1.73
- chain: "GKAYGWCSELMRHRRVHARKEPSH"
  protein stability index: 3.18

Request: Determine from records and report protein stability index for GKAYGWCSETIRHRRVHARKEPSH
Response: 3.16

Request: Determine from records and report protein stability index for GKAYGWCSPLIRHRRVHARKEPSH
Response: 3.24

Request: Determine from records and report protein stability index for GKAYGWCSEEIRHRRVHARKEPSH
Response: 2.84

Request: Determine from records and report protein stability index for GKAYGWCSELIRHRRVHARKEKSH
Response: 2.92

Request: Determine from records and report protein stability index for GKAYGWLSELIRHRRVHARKEPSH
Response: 2.34

Request: Determine from records and report protein stability index for GKAYGACSELIRHRRVHARKEPSH
Response: 3.49

Request: Determine from records and report protein stability index for GKAYGQCSELIRHRRVHARKEPSH
Response: 3.81

Request: Determine from records and report protein stability index for GSAYGWCSELIRHRRVHARKEPSH
Response: 2.84

Request: Determine from records and report protein stability index for GKAYGWCSELIRWRRVHARKEPSH
Response: 3.04
